The reported numbers originate from PubChem BioAssay (NCI).

The following compounds are shown together with reported TGI values.
system: SN12C renal; experiment: NCI tumour cell line growth inhibition, 48 h
Experimental Readout: TGI

[
  {
    "Compound": "O=C(CC1(O)C(=O)Nc2c(Cl)ccc(Cl)c21)c1ccco1 (centres undefined)",
    "Experimental Readout": "TGI",
    "Observed": "31.8 µM"
  },
  {
    "Compound": "Cn1ccc(=O)c2c(O)c3ccccc3c(O)c21",
    "Experimental Readout": "TGI",
    "Observed": "> 100 µM"
  },
  {
    "Compound": "CC(=O)Oc1c(-c2ccccc2)oc2ccccc12",
    "Experimental Readout": "TGI",
    "Observed": "4.68 µM"
  },
  {
    "Compound": "O=C(Cc1nc2ccccc2o1)C(=O)Nc1ccccc1C(F)(F)F",
    "Experimental Readout": "TGI",
    "Observed": "> 100 µM"
  },
  {
    "Compound": "Nc1nonc1C(=Nc1ccc(F)c(Cl)c1)NO",
    "Experimental Readout": "TGI",
    "Observed": "> 100 µM"
  },
  {
    "Compound": "COc1cc(/C=N/n2c(-c3ccccc3)n[nH]c2=O)cc(OC)c1OC",
    "Experimental Readout": "TGI",
    "Observed": "> 100 µM"
  },
  {
    "Compound": "CC(C)=CCC/C(C)=C/CO",
    "Experimental Readout": "TGI",
    "Observed": "> 100 µM"
  },
  {
    "Compound": "C#CCn1cnc2cnc(Nc3cccc(NC(=O)CCl)c3)nc21",
    "Experimental Readout": "TGI",
    "Observed": "> 62.5 µM"
  },
  {
    "Compound": "CC(C)OC(=O)[C@@H]1OC(C)(C)O[C@H]1C(=O)OC(C)C",
    "Experimental Readout": "TGI",
    "Observed": "> 100 µM"
  },
  {
    "Compound": "C[N+](C)(C)CCN(Cc1cccs1)c1ccccn1",
    "Experimental Readout": "TGI",
    "Observed": "> 100 µM"
  },
  {
    "Compound": "Cc1cc2c(O)c(c1)COCc1cc(C)cc(c1O)COCc1cc(C)cc(c1O)COC2",
    "Experimental Readout": "TGI",
    "Observed": "> 100 µM"
  },
  {
    "Compound": "CC(=O)NCCC1CNc2ccccc21 (centres undefined)",
    "Experimental Readout": "TGI",
    "Observed": "> 100 µM"
  },
  {
    "Compound": "CC(C)(C)c1ccc(C(C)(C)C)c(N2C(=O)[C@@H]3[C@@H]4C=C[C@@H](C4)[C@]3(C)C2=O)c1",
    "Experimental Readout": "TGI",
    "Observed": "52.3 µM"
  },
  {
    "Compound": "C=Cc1nc2nnc(CCCCCCCCc3nnc4nc(C=C)[nH]n34)n2[nH]1",
    "Experimental Readout": "TGI",
    "Observed": "> 100 µM"
  },
  {
    "Compound": "Clc1cccc(Cl)c1C1SCc2nc3ccccc3n21 (centres undefined)",
    "Experimental Readout": "TGI",
    "Observed": "> 100 µM"
  },
  {
    "Compound": "Cc1cc2c(s1)C(N)CC2=O (centres undefined)",
    "Experimental Readout": "TGI",
    "Observed": "> 100 µM"
  },
  {
    "Compound": "CC1(CO)COC(C)(C)OC1",
    "Experimental Readout": "TGI",
    "Observed": "> 100 µM"
  },
  {
    "Compound": "CC(C)(Cl)C(Br)CCC(C)(Br)C(Br)CBr (centres undefined)",
    "Experimental Readout": "TGI",
    "Observed": "35.8 µM"
  },
  {
    "Compound": "COC(=O)/C=C/C1C2C3(CCC(C)C12C)OCCS3 (centres undefined)",
    "Experimental Readout": "TGI",
    "Observed": "> 100 µM"
  }
]
